# test.system: α1β2γ2 GABA receptors (α1β2γ2-CHO-TRex stable cell strain) (Homo sapiens, UniProt P14867+P47870)
# Sequence (P14867 28-456): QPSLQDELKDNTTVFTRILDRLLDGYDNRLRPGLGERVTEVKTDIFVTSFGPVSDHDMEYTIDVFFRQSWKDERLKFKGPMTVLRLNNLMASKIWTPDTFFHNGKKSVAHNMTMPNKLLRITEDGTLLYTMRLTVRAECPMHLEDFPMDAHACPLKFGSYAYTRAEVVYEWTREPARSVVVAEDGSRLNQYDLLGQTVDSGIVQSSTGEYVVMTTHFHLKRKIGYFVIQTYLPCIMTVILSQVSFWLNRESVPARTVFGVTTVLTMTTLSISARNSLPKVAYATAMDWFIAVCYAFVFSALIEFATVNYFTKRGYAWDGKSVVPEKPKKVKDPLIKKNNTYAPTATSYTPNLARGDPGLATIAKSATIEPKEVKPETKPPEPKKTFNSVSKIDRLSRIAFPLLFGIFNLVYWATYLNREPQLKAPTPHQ
# Sequence (P47870 25-512 limits assumed): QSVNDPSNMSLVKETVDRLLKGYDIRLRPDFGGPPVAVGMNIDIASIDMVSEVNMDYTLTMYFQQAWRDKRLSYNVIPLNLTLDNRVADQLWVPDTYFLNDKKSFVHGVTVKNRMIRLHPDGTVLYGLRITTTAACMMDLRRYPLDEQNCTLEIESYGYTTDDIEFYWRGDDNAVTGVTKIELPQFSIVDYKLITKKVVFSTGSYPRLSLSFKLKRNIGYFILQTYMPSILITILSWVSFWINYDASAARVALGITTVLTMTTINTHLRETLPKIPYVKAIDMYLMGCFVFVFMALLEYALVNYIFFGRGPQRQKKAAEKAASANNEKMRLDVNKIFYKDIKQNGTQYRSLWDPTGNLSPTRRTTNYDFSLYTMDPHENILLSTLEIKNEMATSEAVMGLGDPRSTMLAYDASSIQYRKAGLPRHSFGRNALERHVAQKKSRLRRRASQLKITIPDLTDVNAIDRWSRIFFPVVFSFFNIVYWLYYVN
# Sequence (P18507 40-475 partner): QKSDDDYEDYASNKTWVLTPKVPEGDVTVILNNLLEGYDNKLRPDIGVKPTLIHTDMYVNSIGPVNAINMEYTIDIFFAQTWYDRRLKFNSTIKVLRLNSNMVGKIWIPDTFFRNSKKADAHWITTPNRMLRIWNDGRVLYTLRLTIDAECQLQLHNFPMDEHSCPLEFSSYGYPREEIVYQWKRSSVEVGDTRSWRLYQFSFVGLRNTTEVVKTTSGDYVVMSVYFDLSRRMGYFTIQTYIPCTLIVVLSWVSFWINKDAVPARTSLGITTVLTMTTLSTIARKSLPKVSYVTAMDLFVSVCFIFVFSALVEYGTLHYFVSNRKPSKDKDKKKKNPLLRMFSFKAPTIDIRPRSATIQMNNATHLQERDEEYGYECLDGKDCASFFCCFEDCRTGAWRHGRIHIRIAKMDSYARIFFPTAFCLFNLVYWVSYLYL
# test.method.notes: Whole-cell patch clamp, intrasynaptic functional activity (positive allosteric regulation of GABA-induced current)
# measurement.parameters: patch clamp -60 mV, GABA at EC10-20, α1β2γ2-CHO-TRex cells
pEC50: −log10 of the molar value.
Recorded pEC50 by entry

{"smiles": "C[C@@]1(O)CC[C@H]2[C@H](CC[C@@H]3[C@@H]2CC[C@]2(C)[C@@H](C(=O)Cn4cnn(-c5ccnc(OC(F)(F)F)c5)c4=O)CC[C@@H]32)C1", "pEC50": 7.26}
{"smiles": "C[C@@]1(O)CC[C@H]2[C@H](CC[C@@H]3[C@@H]2CC[C@]2(C)[C@@H](C(=O)Cn4ccn(-c5cccc(F)c5)c4=O)CC[C@@H]32)C1", "pEC50": 6.62}
{"smiles": "C[C@@]1(O)CC[C@H]2[C@H](CC[C@@H]3[C@@H]2CC[C@]2(C)[C@@H](C(=O)Cn4cnn(-c5cccc(C#N)c5)c4=O)CC[C@@H]32)C1", "pEC50": 6.95}
{"smiles": "C[C@@]1(O)CC[C@H]2[C@H](CC[C@@H]3[C@@H]2CC[C@]2(C)[C@@H](C(=O)Cn4cnn(-c5cc(F)ccn5)c4=O)CC[C@@H]32)C1", "pEC50": 6.47}
{"smiles": "C[C@@]1(O)CC[C@H]2[C@H](CC[C@@H]3[C@@H]2CC[C@]2(C)[C@@H](C(=O)Cn4cnn(C5CCCC5)c4=O)CC[C@@H]32)C1", "pEC50": 6.72}

###

# test.method.notes: Pharmacokinetic study in CD-1 mice (plasma and brain)
# Type: in vivo
# measurement.parameters: male, mouse, brain, oral, IG 5 mg/kg, 30 min, read-out: Brain concentration
measurement.type: concentration at 30 min (ng/g)

{"smiles": "C[C@@]1(O)CC[C@H]2[C@H](CC[C@@H]3[C@@H]2CC[C@]2(C)[C@@H](C(=O)Cn4cnn(-c5cc(F)nc(F)c5)c4=O)CC[C@@H]32)C1", "measurement.type": "concentration at 30 min", "u": "ng/g", "readout.number": 847}

###

# test.method.notes: Pharmacokinetic study in CD-1 mice (plasma and brain)
# Type: in vivo
# measurement.parameters: male, mouse, IV 1 mg/kg, plasma

{"smiles": "C[C@@]1(O)CC[C@H]2[C@H](CC[C@@H]3[C@@H]2CC[C@]2(C)[C@@H](C(=O)Cn4cnn(-c5cc(F)nc(F)c5)c4=O)CC[C@@H]32)C1", "AUC(0-inf) (ng·h/mL)": 4320}

###

# test.method.notes: In vitro liver microsomal stability assay, human
# Assay type: in vitro ADME
# measurement.parameters: Human liver microsomes; read-out: CLint(mic)

{"smiles": "COc1ccc(-n2ncn(CC(=O)[C@H]3CC[C@H]4[C@@H]5CC[C@@H]6C[C@](C)(O)CC[C@@H]6[C@H]5CC[C@]34C)c2=O)cn1", "u": "µL/min/mg", "microsomal CLint at 1 µM": 19}
{"smiles": "C[C@@]1(O)CC[C@H]2[C@H](CC[C@@H]3[C@@H]2CC[C@]2(C)[C@@H](C(=O)Cn4cnn(-c5cncc(F)c5)c4=O)CC[C@@H]32)C1", "u": "µL/min/mg", "microsomal CLint at 1 µM": 23}
{"smiles": "C[C@@]1(O)CC[C@H]2[C@H](CC[C@@H]3[C@@H]2CC[C@]2(C)[C@@H](C(=O)Cn4cnn(-c5ccc(F)cc5F)c4=O)CC[C@@H]32)C1", "u": "µL/min/mg", "microsomal CLint at 1 µM": 28}
{"smiles": "COCCn1ncn(CC(=O)[C@H]2CC[C@H]3[C@@H]4CC[C@@H]5C[C@](C)(O)CC[C@@H]5[C@H]4CC[C@]23C)c1=O", "u": "µL/min/mg", "microsomal CLint at 1 µM": 41}
{"smiles": "C[C@@]1(O)CC[C@H]2[C@H](CC[C@@H]3[C@@H]2CC[C@]2(C)[C@@H](C(=O)Cn4cnn(-c5ccccc5F)c4=O)CC[C@@H]32)C1", "u": "µL/min/mg", "microsomal CLint at 1 µM": 33}
{"smiles": "C[C@@]1(O)CC[C@H]2[C@H](CC[C@@H]3[C@@H]2CC[C@]2(C)[C@@H](C(=O)Cn4cnn(-c5cccc(C(N)=O)c5)c4=O)CC[C@@H]32)C1", "u": "µL/min/mg", "microsomal CLint at 1 µM": 29}

###

# test.method.notes: Pharmacokinetic study in SD rats (plasma and brain)
# Type: in vivo
# measurement.parameters: male, rat, plasma, oral, IG 24.4 μmol/kg, 6 h

{"smiles": "C[C@@]1(O)CC[C@H]2[C@H](CC[C@@H]3[C@@H]2CC[C@]2(C)[C@@H](C(=O)Cn4cnn(-c5cc(F)nc(F)c5)c4=O)CC[C@@H]32)C1", "u": "nM", "concentration at 6 h": 1480}

###

# test.system: α4β3δ GABA receptors (α4β3δ-HEK-FlpIn-TRex stable cell strain) (Homo sapiens, UniProt P28472+P48169)
# Sequence (P48169 36-554): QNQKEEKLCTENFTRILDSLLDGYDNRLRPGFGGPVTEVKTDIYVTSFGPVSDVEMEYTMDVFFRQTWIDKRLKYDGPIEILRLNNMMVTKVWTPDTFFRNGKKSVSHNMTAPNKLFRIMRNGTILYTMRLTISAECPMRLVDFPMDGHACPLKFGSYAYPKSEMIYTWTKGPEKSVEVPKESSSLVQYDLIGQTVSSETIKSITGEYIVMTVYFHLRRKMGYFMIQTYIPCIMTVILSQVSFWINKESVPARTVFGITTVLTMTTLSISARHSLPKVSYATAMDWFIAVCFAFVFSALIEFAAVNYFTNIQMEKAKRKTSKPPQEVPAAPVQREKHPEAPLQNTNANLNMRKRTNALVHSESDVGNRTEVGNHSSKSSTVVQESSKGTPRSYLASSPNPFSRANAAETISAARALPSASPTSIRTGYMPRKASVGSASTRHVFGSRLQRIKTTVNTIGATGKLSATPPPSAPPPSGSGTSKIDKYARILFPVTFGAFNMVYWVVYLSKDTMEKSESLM
# Sequence (P28472 26-473): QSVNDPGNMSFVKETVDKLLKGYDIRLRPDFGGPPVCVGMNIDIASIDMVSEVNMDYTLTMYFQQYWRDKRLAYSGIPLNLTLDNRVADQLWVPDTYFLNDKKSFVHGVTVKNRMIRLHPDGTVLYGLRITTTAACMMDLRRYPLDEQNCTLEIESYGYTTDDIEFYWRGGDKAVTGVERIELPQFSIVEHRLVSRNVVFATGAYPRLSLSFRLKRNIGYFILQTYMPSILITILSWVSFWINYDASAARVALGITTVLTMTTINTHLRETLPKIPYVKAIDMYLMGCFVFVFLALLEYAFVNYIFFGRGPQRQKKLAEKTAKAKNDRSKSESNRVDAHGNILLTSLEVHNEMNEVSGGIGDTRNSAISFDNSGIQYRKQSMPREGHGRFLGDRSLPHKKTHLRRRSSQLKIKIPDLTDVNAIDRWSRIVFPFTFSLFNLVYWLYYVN
# Sequence (O14764 25-452 partner): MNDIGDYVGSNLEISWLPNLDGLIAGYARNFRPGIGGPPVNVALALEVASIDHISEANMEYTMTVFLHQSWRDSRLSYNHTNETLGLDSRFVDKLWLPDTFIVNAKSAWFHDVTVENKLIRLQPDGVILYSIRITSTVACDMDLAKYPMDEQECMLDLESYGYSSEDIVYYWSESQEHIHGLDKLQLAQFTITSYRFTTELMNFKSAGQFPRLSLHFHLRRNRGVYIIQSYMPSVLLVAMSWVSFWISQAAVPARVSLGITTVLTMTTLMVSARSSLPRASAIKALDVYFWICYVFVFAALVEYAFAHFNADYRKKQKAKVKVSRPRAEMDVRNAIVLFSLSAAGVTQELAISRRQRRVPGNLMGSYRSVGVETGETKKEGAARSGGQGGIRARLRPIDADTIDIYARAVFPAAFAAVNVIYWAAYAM
# test.method.notes: Whole-cell patch clamp, extrasynaptic functional activity (positive allosteric regulation of GABA-induced current)
# measurement.parameters: patch clamp -60 mV, GABA at EC10-20, α4β3δ-HEK-FlpIn-TRex cells
Threshold 80 nM. EC50 below it: class 1. EC50 at it or above: class 0.

{"smiles": "COc1cccc(-n2ncn(CC(=O)[C@H]3CC[C@H]4[C@@H]5CC[C@@H]6C[C@](C)(O)CC[C@@H]6[C@H]5CC[C@]34C)c2=O)c1", "assigned.category": "class 1"}
{"smiles": "C[C@@]1(O)CC[C@H]2[C@H](CC[C@@H]3[C@@H]2CC[C@]2(C)[C@@H](C(=O)Cn4cnn(C5CCCCC5)c4=O)CC[C@@H]32)C1", "assigned.category": "class 0"}
{"smiles": "Cc1cc(-n2ncn(CC(=O)[C@H]3CC[C@H]4[C@@H]5CC[C@@H]6C[C@](C)(O)CC[C@@H]6[C@H]5CC[C@]34C)c2=O)ccn1", "assigned.category": "class 0"}
{"smiles": "C[C@@]1(O)CC[C@H]2[C@H](CC[C@@H]3[C@@H]2CC[C@]2(C)[C@@H](C(=O)Cn4ncn(-c5ccc(F)cc5)c4=O)CC[C@@H]32)C1", "assigned.category": "class 0"}
{"smiles": "C[C@@]1(O)CC[C@H]2[C@H](CC[C@@H]3[C@@H]2CC[C@]2(C)[C@@H](C(=O)Cn4cnn(-c5cccc(N)c5)c4=O)CC[C@@H]32)C1", "assigned.category": "class 0"}
{"smiles": "C[C@@]1(O)CC[C@H]2[C@H](CC[C@@H]3[C@@H]2CC[C@]2(C)[C@@H](C(=O)Cn4cnn(-c5ccc(F)cc5F)c4=O)CC[C@@H]32)C1", "assigned.category": "class 0"}
{"smiles": "C[C@@]1(O)CC[C@H]2[C@H](CC[C@@H]3[C@@H]2CC[C@]2(C)[C@@H](C(=O)Cn4cnn(-c5cc(F)ccn5)c4=O)CC[C@@H]32)C1", "assigned.category": "class 1"}
{"smiles": "C[C@@]1(O)CC[C@H]2[C@H](CC[C@@H]3[C@@H]2CC[C@]2(C)[C@@H](C(=O)Cn4cnn(-c5ccnc(OC(F)(F)F)c5)c4=O)CC[C@@H]32)C1", "assigned.category": "class 0"}
{"smiles": "C[C@@]1(O)CC[C@H]2[C@H](CC[C@@H]3[C@@H]2CC[C@]2(C)[C@@H](C(=O)Cn4cnn(-c5ccccc5F)c4=O)CC[C@@H]32)C1", "assigned.category": "class 0"}
{"smiles": "C[C@@]1(O)CC[C@H]2[C@H](CC[C@@H]3[C@@H]2CC[C@]2(C)[C@@H](C(=O)Cn4cnn(-c5cccc(F)c5F)c4=O)CC[C@@H]32)C1", "assigned.category": "class 1"}

###

# test.method.notes: Pharmacokinetic study in SD rats (plasma and brain)
# Format: in vivo
# measurement.parameters: male, rat, plasma, 6.1 umol/kg, IV 6.1 μmol/kg
# Experimental: Male SD rats weighing about 250 g were randomly divided into groups of 3. The intravenous dose was 6.1 mol/kg, and the intragastric dose was 24.4 μmol/kg. Animals were fasted for 12 h before administration, with free access to water, and were fed together 3 h post-administration. […] After pretreatment, the samples were analyzed by LC-MS/MS to determine the concentration of the test compound in the plasma and brain, and pharmacokinetic parameters were calculated.
measurement.type: MRT last (h)

{"smiles": "C[C@@]1(O)CC[C@H]2[C@H](CC[C@@H]3[C@@H]2CC[C@]2(C)[C@@H](C(=O)Cn4cnn(-c5cc(F)nc(F)c5)c4=O)CC[C@@H]32)C1", "readout.number": 6.3}

###

# test.method.notes: In vitro liver microsomal stability assay, human
# Format: in vitro ADME
# measurement.parameters: Human liver microsomes 0.5 mg/mL, NADPH

{"smiles": "C[C@@]1(O)CC[C@H]2[C@H](CC[C@@H]3[C@@H]2CC[C@]2(C)[C@@H](C(=O)Cn4cnn(-c5cc(F)nc(F)c5)c4=O)CC[C@@H]32)C1", "Remaining amount % at 60 min / %": 98.2}
{"smiles": "C[C@@]1(O)CC[C@H]2[C@H](CC[C@@H]3[C@@H]2CC[C@]2(C)[C@@H](C(=O)Cn4cnn(-c5ccnc(OC(F)(F)F)c5)c4=O)CC[C@@H]32)C1", "Remaining amount % at 60 min / %": 97.3}
{"smiles": "C[C@@]1(O)CC[C@H]2[C@H](CC[C@@H]3[C@@H]2CC[C@]2(C)[C@@H](C(=O)Cn4cnn(-c5cccc(F)n5)c4=O)CC[C@@H]32)C1", "Remaining amount % at 60 min / %": 52.3}
{"smiles": "C[C@@]1(O)CC[C@H]2[C@H](CC[C@@H]3[C@@H]2CC[C@]2(C)[C@@H](C(=O)Cn4cnn(-c5ccccc5F)c4=O)CC[C@@H]32)C1", "Remaining amount % at 60 min / %": 38.3}
{"smiles": "C[C@@]1(O)CC[C@H]2[C@H](CC[C@@H]3[C@@H]2CC[C@]2(C)[C@@H](C(=O)Cn4cnn(-c5cc(F)ccc5F)c4=O)CC[C@@H]32)C1", "Remaining amount % at 60 min / %": 56.1}
